Test system: IL-12 induced STAT4 phosphorylation mediated by TYK2/JAK2
Assay: IL-12 induced pSTAT4 in human PBMC
Assay type: cell-based
Conditions: 1 hr compound, 1.7 ng/mL IL-12 for 30 minutes
Description: Human PBMC were isolated from buffy coat and are stored frozen for assays as needed. […] 15 μL of compound or DMSO was added to the well at the desired concentrations and incubated at 1 hr at 37° C. 15 μL of stimulus (final concentration of 1.7 ng/mL IL-12) was added for 30 minutes prior to pSTAT4 and total STAT4 analysis using cell lysates prepared and analyzed by MSD reagents as per manufacturer protocol. The final DMSO concentration of compound in the assay was 0.1%. […]
Reported endpoint: IC50

**Query** Given the compound CNc1cc(-c2cnc3n([C@H]4CN(C)C[C@@H]4OC)cccc2-3)nc2c(C(=O)N[C@H]3CC[C@@H]3OC)cnn12 , write its reported IC50.
**Result** < 0.1 µM

**Query** Name the recorded IC50 of the compound listed here: CNc1cc(-c2cn([C@H]3CCOC[C@@H]3OC)c3ncccc23)nc2c(C(=O)N[C@H]3CC[C@@H]3OC)cnn12
**Result** < 0.1 µM

**Query** Give the value of IC50 reported for the following: CNc1cc(-c2cn([C@H]3COC[C@H]3F)c3ncccc23)nc2c(C(=O)NC3CC[C@H]3O)cnn12 (stereo partly drawn)
**Result** < 0.1 µM

---

System: IL-12 induced STAT4 phosphorylation mediated by TYK2/JAK2
Experiment: IL-12 induced pSTAT4 in human PBMC
Assay type: cell-based
Conditions: 1 hr compound, 1.7 ng/mL IL-12 for 30 minutes
Procedure: Human PBMC were isolated from buffy coat and are stored frozen for assays as needed. […] 15 μL of compound or DMSO was added to the well at the desired concentrations and incubated at 1 hr at 37° C. 15 μL of stimulus (final concentration of 1.7 ng/mL IL-12) was added for 30 minutes prior to pSTAT4 and total STAT4 analysis using cell lysates prepared and analyzed by MSD reagents as per manufacturer protocol. The final DMSO concentration of compound in the assay was 0.1%. […]
Reported endpoint: IC50

**Query** Given CNc1cc(-c2cnc3n([C@@H]4COC[C@H]4O)cccc2-3)nc2c(C(=O)N[C@@H]3CC[C@H]3OC)cnn12 [Compound I-876] , respond with its IC50.
**Result** < 0.1 µM

**Query** Entry CNc1cc(Nc2cccn([C@H]3[C@@H]4COC[C@@H]43)c2=O)nc2c(C(=O)NC3CC[C@H]3F)cnn12 (some centres unmarked) [Compound I-203] needs its IC50 filled in; supply it.
**Result** < 0.1 µM

**Query** Answer with reported IC50 of CNc1cc(Nc2cccn([C@H]3C[C@@H](OC)C3)c2=O)nc2c(C(=O)NC3CC[C@@H]3OC)cnn12 (some centres unmarked) [Compound I-780]
**Result** < 0.1 µM

**Query** Supply IC50 value. Item: CNc1cc(-c2cn([C@@H]3COC[C@H]3O)c3ncccc23)nc2c(C(=O)N[C@H]3CCC3(F)F)cnn12 [Compound I-693]
**Result** < 0.1 µM

**Query** Identify the reported IC50 for the following entry. CNc1cc(-c2cn(C3CN(C)C3)c3ncccc23)nc2c(C(=O)NC3CC[C@@H]3F)cnn12 (some centres unmarked) [Compound I-513]
**Result** < 0.1 µM

**Query** Look up and state reported IC50 for CNc1cc(Nc2cccn(C3CCOCC3)c2=O)nc2c(C(=O)N[C@H]3CC[C@]3(C)O)cnn12 [Compound I-349]
**Result** < 0.1 µM

**Query** Given CNc1cc(-c2cn([C@H]3CCC[C@H]3F)c3ncccc23)nc2c(C(=O)N[C@H]3COC[C@H]3O)cnn12 [Compound I-722] , respond with its IC50.
**Result** < 0.1 µM

**Query** Assign IC50 to the following record: CNc1cc(-c2cnc3n([C@@H]4COC[C@H]4OC)cccc2-3)nc2c(C(=O)NC3CC[C@H]3F)cnn12 (some centres unmarked) [Compound I-841]
**Result** < 0.1 µM

**Query** Given CNc1cc(Nc2cccn([C@@H]3C[C@H]3F)c2=O)nc2c(C(=O)NC3CCC3(F)F)cnn12 (some centres unmarked) [Compound I-274] , respond with its IC50.
**Result** < 0.1 µM

**Query** Output measured IC50 for this item: CNc1ccc(-c2cc(NC)n3ncc(C(=O)NC4CC[C@H]4F)c3n2)n2ccnc12 (some centres unmarked) [Compound I-483]
**Result** < 0.1 µM

**Query** Query IC50 for CNc1cc(Nc2cccn([C@@H]3C[C@H]3F)c2=O)nc2c(C(=O)N[C@@H]3C[C@H]3OC)cnn12 [Compound I-135]
**Result** < 0.1 µM

**Query** Tell us which IC50 value is on record for CNc1cc(-c2cn([C@H]3C[C@@H](COC)C3)c3ncccc23)nc2c(C(=O)N[C@H]3CC[C@@H]3OC)cnn12 [Compound I-933]
**Result** < 0.1 µM

**Query** // fetch IC50 given entry CNc1cc(Nc2cccn(C3COC3)c2=O)nc2c(C(=O)NC3CC[C@H]3F)cnn12 (some centres unmarked) [Compound I-160]
**Result** < 0.1 µM

**Query** Fill in reported IC50 for this entry: CNc1cc(Nc2cccn([C@@H]3C[C@H]3F)c2=O)nc2c(C(=O)N[C@@H]3CC[C@H]3OC)cnn12 [I-53]
**Result** < 0.1 µM
